# STUDY SYSTEM: UniProtKB P08912
# Sequence (P08912 whole entry): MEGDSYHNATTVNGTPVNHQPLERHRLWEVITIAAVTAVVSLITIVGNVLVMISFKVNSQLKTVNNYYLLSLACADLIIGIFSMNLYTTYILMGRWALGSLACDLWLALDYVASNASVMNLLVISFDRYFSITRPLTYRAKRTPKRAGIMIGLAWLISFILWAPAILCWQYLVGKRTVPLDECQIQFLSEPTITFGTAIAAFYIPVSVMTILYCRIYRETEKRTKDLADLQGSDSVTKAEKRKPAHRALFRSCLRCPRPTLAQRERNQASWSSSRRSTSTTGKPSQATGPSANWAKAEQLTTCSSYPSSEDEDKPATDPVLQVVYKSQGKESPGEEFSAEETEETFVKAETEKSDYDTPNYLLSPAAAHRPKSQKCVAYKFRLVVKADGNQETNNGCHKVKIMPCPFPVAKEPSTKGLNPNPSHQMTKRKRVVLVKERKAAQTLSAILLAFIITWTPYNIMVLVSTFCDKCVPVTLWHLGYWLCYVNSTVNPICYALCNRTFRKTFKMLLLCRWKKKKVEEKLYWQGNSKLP
# TEST METHOD NOTES: Displacement of [3H]NMS from human recombinant muscarinic receptor M5 expressed in CHO-K9 cell membranes measured after 3 hrs by radioligand competition binding assay
PARAMETER: Ki (nM)

Cc1cc(/C=C/c2cc3c4c(c2)CCCN4CCC3)cc(C)[n+]1CCN1CCN(CCCCC2CCN(CC(=O)N3c4ccccc4NC(=O)c4ccccc43)CC2)CC1 126

1 = CN(C)c1ccc2c(-c3ccc(C(=O)NCCNC(=O)CCc4cn(CCCCC5CCN(CC(=O)N6c7ccccc7NC(=O)c7ccccc76)CC5)cn4)cc3C(=O)[O-])c3ccc(=[N+](C)C)cc-3oc2c1
2 = O=C(CCCCCNC(=O)COc1ccc(/C=C/C2=[N+]3C(=Cc4ccc(-c5cccs5)n4[B-]3(F)F)C=C2)cc1)NCCNC(=O)CCc1cn(CCCCC2CCN(CC(=O)N3c4ccccc4NC(=O)c4ccccc43)CC2)cn1
3 = Cc1cc(/C=C/c2cc3c4c(c2)CCCN4CCC3)cc(C)[n+]1CCNC(=O)CCc1cn(CCCCC2CCN(CC(=O)N3c4ccccc4NC(=O)c4ccccc43)CC2)cn1
4 = CN(C)c1ccc2c(-c3ccc(C(=O)NCCN4CCN(CCCCC5CCN(CC(=O)N6c7ccccc7NC(=O)c7ccccc76)CC5)CC4)cc3C(=O)[O-])c3ccc(=[N+](C)C)cc-3oc2c1
5 = Cc1cc(/C=C/C=C/c2ccc(N(C)C)cc2)cc(C)[n+]1CCNC(=O)CCc1cn(CCCCC2CCN(CC(=O)N3c4ccccc4NC(=O)c4ccccc43)CC2)cn1
Form: Sort by [Ki] Order [ ascending ] Please respond with the labels ordered as the question requires.
2, 3, 5, 4, 1
(2: 10 nM, 3: 40.7 nM, 5: 70.8 nM, 4: 178 nM, 1: 275 nM)
